src = patent US20240336686A1

assayedSystem: Full length human SIRPα v1 with beta-gal fragment (ED) at its C-terminal, in K562 cells (human, UniProt P78324 31-504)
Sequence (P78324 31-504): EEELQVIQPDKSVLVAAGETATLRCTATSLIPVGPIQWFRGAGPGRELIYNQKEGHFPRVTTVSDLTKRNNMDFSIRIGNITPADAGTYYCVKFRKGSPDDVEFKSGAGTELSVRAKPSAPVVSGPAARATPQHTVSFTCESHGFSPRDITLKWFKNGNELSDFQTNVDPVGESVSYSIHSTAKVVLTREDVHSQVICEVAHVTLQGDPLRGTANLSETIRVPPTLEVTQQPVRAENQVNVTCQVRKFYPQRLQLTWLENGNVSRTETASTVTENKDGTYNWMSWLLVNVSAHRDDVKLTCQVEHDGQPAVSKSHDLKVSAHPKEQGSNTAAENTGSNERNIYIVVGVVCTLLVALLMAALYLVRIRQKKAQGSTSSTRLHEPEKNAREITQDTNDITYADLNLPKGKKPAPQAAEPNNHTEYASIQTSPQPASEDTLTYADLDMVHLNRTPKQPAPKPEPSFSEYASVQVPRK
protocolSummary: cell-based or functional assay
assayMetric: IC50 (SHP-1 recruitment blocking) (nM)
# value in nM; strip the unit string

Ask | Endpoint output: IC50 (SHP-1 recruitment blocking) of Humanized anti-SIRPα antibody hu025.060 (antibody, V domains shown, Humanized from C25) VH: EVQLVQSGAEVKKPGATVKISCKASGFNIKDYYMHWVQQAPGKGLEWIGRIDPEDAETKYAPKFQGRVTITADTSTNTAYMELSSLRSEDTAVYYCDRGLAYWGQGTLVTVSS VL: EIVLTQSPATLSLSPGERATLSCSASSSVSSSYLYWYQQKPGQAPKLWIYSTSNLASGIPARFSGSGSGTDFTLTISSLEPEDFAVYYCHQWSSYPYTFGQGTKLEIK . Value?
Reply | 0.09

Continuing:
Ask | Form field: reported IC50 (SHP-1 recruitment blocking) of Humanized anti-SIRPα antibody hu025.023 (antibody, V domains shown, Humanized from C25) VH: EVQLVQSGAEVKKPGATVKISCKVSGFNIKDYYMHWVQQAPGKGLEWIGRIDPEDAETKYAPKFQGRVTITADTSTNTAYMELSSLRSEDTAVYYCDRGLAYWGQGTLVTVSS VL: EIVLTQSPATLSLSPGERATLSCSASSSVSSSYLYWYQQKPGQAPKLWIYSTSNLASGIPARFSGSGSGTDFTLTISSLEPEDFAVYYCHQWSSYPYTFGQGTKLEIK
Reply | 0.1
